Reference source: the supplement of paper PMC10065799

Please go through the items and note down their phosphorylation enrichment.
System: Fer (mouse)
Assay info: phosphorylation enrichment, bacterial display (enrichment ratio); higher = better substrate or ligand; peptides without Tyr show the background;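 further: 11-residue human phosphosite peptides and single-mutation variants displayed on the E. coli surface, counted by deep sequencing, each peptide's frequency after selection divided by its frequency in the unselected input library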;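 further: frequency after pTyr selection over input frequency; kinase dosed for 20-30% of maximal phosphorylation in three min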
Kindly provide the number alone.

Provide the documented phosphorylation enrichment with Fer (mouse) as the system for YEKFLYFLPAS [DYNC2H1_Y346_H341Y]
0.581

Provide the documented phosphorylation enrichment with Fer (mouse) as the system for KGEDFYCVTRH [FHL1_Y149_C153R]
0.662

Provide the documented phosphorylation enrichment with Fer (mouse) as the system for AGREEYSAMRD [KRAS_Y64_Q61R]
0.453

Provide the documented phosphorylation enrichment with Fer (mouse) as the system for CTIIHYNYMCN [TP53_Y234_T231I]
0.633

Provide the documented phosphorylation enrichment with Fer (mouse) as the system for PARLEYFENEK [IRS1_Y46_YF]
0.661

Provide the documented phosphorylation enrichment with Fer (mouse) as the system for FVHDNYVIRRT [CPS1_Y1450]
0.435

Provide the documented phosphorylation enrichment with Fer (mouse) as the system for CSEETYRLMLQ [RET_Y981_M980T]
0.703

Provide the documented phosphorylation enrichment with Fer (mouse) as the system for HHTDEYEFDEL [TGM1_Y134_YF]
0.622

Provide the documented phosphorylation enrichment with Fer (mouse) as the system for KYRREYILSLE [GPC3_Y299_W296R]
0.534

Provide the documented phosphorylation enrichment with Fer (mouse) as the system for TKDTFYKQPMV [GBA_Y451_F456V]
0.38

Provide the documented phosphorylation enrichment with Fer (mouse) as the system for SRVNKYSTAFG [GJB3_Y16_G12R]
0.499

Provide the documented phosphorylation enrichment with Fer (mouse) as the system for MGCVNYGAFIN [GLB1_Y485_R482C_YF]
0.522

Provide the documented phosphorylation enrichment with Fer (mouse) as the system for FDAHIYEGRVI [PRKCD_Y64]
2.12

Provide the documented phosphorylation enrichment with Fer (mouse) as the system for FGISGYLVDSV [MAP2K3_Y214]
0.529

Provide the documented phosphorylation enrichment with Fer (mouse) as the system for FPKARYRWLVL [APTX_Y214_H215R_YF]
0.352

Provide the documented phosphorylation enrichment with Fer (mouse) as the system for GVFSRYFTTFD [CLCA1_Y661_YF]
0.433

Provide the documented phosphorylation enrichment with Fer (mouse) as the system for MSSLPYMKMIF [SLC4A11_Y853]
1.05

Provide the documented phosphorylation enrichment with Fer (mouse) as the system for ALVDTYCRHNY [HLA-DRB1_Y107_A103L]
0.442

Provide the documented phosphorylation enrichment with Fer (mouse) as the system for TNYCLYLRSLE [MTM1_Y71_R69C]
0.614

Provide the documented phosphorylation enrichment with Fer (mouse) as the system for MHDSNYVSKGS [PDGFRA_Y849]
0.393

Provide the documented phosphorylation enrichment with Fer (mouse) as the system for RRESQYQENRG [LRCH3_Y354]
0.563

Provide the documented phosphorylation enrichment with Fer (mouse) as the system for FEEDSYVERSQ [RET_Y905_K907E_YF]
0.575

Provide the documented phosphorylation enrichment with Fer (mouse) as the system for KRAIGYFSATS [FAM120A_Y327_YF]
0.327

Provide the documented phosphorylation enrichment with Fer (mouse) as the system for FMRGMYFRMKD [PLA2G6_Y541_YF]
0.399

Provide the documented phosphorylation enrichment with Fer (mouse) as the system for ADKSAYLMGLN [MYH7_Y386]
0.549

Provide the documented phosphorylation enrichment with Fer (mouse) as the system for CSRCFYQLTKL [AR_Y858_R856C]
1.85

Provide the documented phosphorylation enrichment with Fer (mouse) as the system for PLDAEYFTLQI [TP53_Y327_G325A]
0.883

Provide the documented phosphorylation enrichment with Fer (mouse) as the system for RLEGVYRNNID [PTEN_Y46]
0.849

Provide the documented phosphorylation enrichment with Fer (mouse) as the system for PLDGEYFTLPI [TP53_Y327_Q331P]
1.66

----------
Test system: AncSZ
Assay info: phosphorylation enrichment, bacterial display (enrichment ratio); higher = better substrate or ligand; peptides without Tyr show the background
Quantity kind: phosphorylation enrichment

// phosphorylation enrichment lookup, key: KNITEYCRDLI [RECQL_Y492]
0.877

// phosphorylation enrichment lookup, key: EEETDYTPVWC [UROD_Y30_G25E]
1.58

// phosphorylation enrichment lookup, key: RSGIYYKPESL [L2HGDH_Y103_H98R]
1.17

// phosphorylation enrichment lookup, key: KSRQIYDAFIM [GRK3_Y109_R104K_YF]
0.764

// phosphorylation enrichment lookup, key: FGMQLYQKFMH [GRB14_Y347_N349K_YF]
0.863

// phosphorylation enrichment lookup, key: CTTIHYNFMFN [TP53_Y234_C238F_YF]
1.27

// phosphorylation enrichment lookup, key: AAVLNYKAGRD [GRIN2A_Y737]
0.461

// phosphorylation enrichment lookup, key: FFSSEYHCVGG [CTSC_Y345_Y347C_YF]
2.38

// phosphorylation enrichment lookup, key: ALTDNYMFLVI [HAGH_Y61_YF]
1.37

// phosphorylation enrichment lookup, key: EQFELHCEMGS [CBL_Y371_Y371H_YF]
1.17

// phosphorylation enrichment lookup, key: GREAEYSDKHG [EPHB4_Y574]
0.64

// phosphorylation enrichment lookup, key: MPPHICAITDT [MYH9_Y151_Y151C]
0.809

// phosphorylation enrichment lookup, key: QVMDGYPIPIG [MMP14_Y353_M355I]
0.686

// phosphorylation enrichment lookup, key: LKLWDYRRGRC [WDR5B_Y239_S240R]
0.871

----------
Target system: FGFR3 (UniProt P22607)
Sequence (P22607 whole entry, looked up): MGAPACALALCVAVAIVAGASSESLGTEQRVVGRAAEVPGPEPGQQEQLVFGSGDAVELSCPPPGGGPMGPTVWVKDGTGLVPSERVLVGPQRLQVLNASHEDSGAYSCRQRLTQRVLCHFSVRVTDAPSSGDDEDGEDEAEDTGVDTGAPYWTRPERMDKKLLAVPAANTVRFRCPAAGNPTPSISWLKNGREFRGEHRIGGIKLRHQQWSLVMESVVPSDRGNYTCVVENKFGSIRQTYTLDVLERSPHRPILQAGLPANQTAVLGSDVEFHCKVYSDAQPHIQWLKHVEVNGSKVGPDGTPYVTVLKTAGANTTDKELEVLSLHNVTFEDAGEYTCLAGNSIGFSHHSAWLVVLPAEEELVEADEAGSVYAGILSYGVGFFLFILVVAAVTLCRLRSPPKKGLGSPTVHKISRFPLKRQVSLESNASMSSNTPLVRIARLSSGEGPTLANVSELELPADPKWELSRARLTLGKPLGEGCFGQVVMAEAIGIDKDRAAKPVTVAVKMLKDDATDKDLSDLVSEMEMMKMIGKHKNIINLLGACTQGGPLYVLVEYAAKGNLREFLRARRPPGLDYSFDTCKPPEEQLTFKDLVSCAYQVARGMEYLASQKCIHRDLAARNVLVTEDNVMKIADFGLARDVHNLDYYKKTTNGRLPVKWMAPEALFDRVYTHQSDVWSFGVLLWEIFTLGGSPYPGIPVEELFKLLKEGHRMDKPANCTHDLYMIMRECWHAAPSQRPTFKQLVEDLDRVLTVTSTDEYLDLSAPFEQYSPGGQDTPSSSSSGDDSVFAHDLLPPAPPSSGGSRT
Assay info: phosphorylation enrichment, bacterial display (enrichment ratio); higher = better substrate or ligand; peptides without Tyr show the background
Quantity kind: phosphorylation enrichment
Kindly provide the number alone.

// phosphorylation enrichment lookup, key: ALVDTYCRHNY [HLA-DRB1_Y107_A103L]
0.501

// phosphorylation enrichment lookup, key: IEEGTYGVVFR [CDK11B_Y449_YF]
0.961

// phosphorylation enrichment lookup, key: KVALPYKPFFF [POLE_Y100_YF]
0.537

// phosphorylation enrichment lookup, key: KDFNKYVAYIE [KDM4B_Y31]
0.53

// phosphorylation enrichment lookup, key: KTTILHKLKLG [ARF1_Y35_Y35H]
0.518

// phosphorylation enrichment lookup, key: RIVRKYKKVRF [F8_Y442_G439V]
0.765

// phosphorylation enrichment lookup, key: FAASSYSFSDL [EMD_Y59_S54F]
0.663

// phosphorylation enrichment lookup, key: VLRQVYVDFEG [KMT2B_Y1707_R1705Q]
0.871

// phosphorylation enrichment lookup, key: SCTFTYLLGDR [ETHE1_Y38]
0.575

// phosphorylation enrichment lookup, key: CRPPYYHRNCM [HGD_Y334_F329C]
0.628

// phosphorylation enrichment lookup, key: GNKENYGLPQP [BUB1_Y538]
0.609

// phosphorylation enrichment lookup, key: CKQGKYLNWDA [ATM_Y54_S49C]
0.632

// phosphorylation enrichment lookup, key: FSAGTYPRMEE [SYCN_Y108_L111M]
0.547

// phosphorylation enrichment lookup, key: LVSCAYQVARG [FGFR1_Y605]
0.577

// phosphorylation enrichment lookup, key: KQQEIYQELTQ [CD209_Y239]
2.3

// phosphorylation enrichment lookup, key: ISRDVYSTDYY [NTRK2_Y702_M697I]
3.13

// phosphorylation enrichment lookup, key: GDFLSYREFHL [ERBIN_Y1107_S1112L_YF]
0.792

// phosphorylation enrichment lookup, key: VLDSHYPEDEV [C1QBP_Y188_C186S]
0.736

// phosphorylation enrichment lookup, key: RASSSYRETPS [SORBS1_Y79]
0.68

// phosphorylation enrichment lookup, key: QYNIQYSSSAA [ERBB2IP_Y981]
0.648

// phosphorylation enrichment lookup, key: RRNVYYYSYLL [PTEN_Y177_Y174N]
4.21

// phosphorylation enrichment lookup, key: QLFGAYLRIHA [BSCL2_Y213_YF]
2.28

// phosphorylation enrichment lookup, key: `TENAGYYFRIS`
0.816

// phosphorylation enrichment lookup, key: VNYGAYINDFN [GLB1_Y488_K493N]
0.616

// phosphorylation enrichment lookup, key: KLKRSYSSRDI [USP8_Y717_P720R]
0.368

// phosphorylation enrichment lookup, key: HTLIKYTDGDQ [PUS7L_Y94]
1.14

// phosphorylation enrichment lookup, key: SVTCTDSPALN [TP53_Y126_Y126D]
0.805

// phosphorylation enrichment lookup, key: IGEGTYGVLYK [CDK2_Y15_V18L]
0.632

// phosphorylation enrichment lookup, key: RVKPIYFHTQG [AR_Y916_K911R]
0.765
